# method: activity coefficient (dimensionless); of the first substance listed, at infinite dilution; xn = mol fraction of the nth substance listed
# study.conditions: 358.15 K; 101 kPa; Liquid; Chromatography; x1 = 0
measurement.name: activity coefficient

Check out these entries, answers already filled in.
>  <compound>
O [water] + CCCC[n+]1cccc(C)c1.O=S(=O)([O-])C(F)(F)F

>  <activity coefficient>
0.765

$$$$
>  <compound>
CCCCO [butan-1-ol] + CCCC[n+]1cccc(C)c1.O=S(=O)([O-])C(F)(F)F

>  <activity coefficient>
1.15

$$$$
>  <compound>
COC(C)(C)C [2-methoxy-2-methylpropane] + CCCC[n+]1cccc(C)c1.O=S(=O)([O-])C(F)(F)F

>  <activity coefficient>
4.24

$$$$
>  <compound>
CCc1ccccc1 [ethylbenzene] + CCCC[n+]1cccc(C)c1.O=S(=O)([O-])C(F)(F)F

>  <activity coefficient>
2.83

$$$$
>  <compound>
C1CCCC1 [cyclopentane] + CCCC[n+]1cccc(C)c1.O=S(=O)([O-])C(F)(F)F

>  <activity coefficient>
7.54

$$$$
>  <compound>
CCO [ethanol] + CCCC[n+]1cccc(C)c1.O=S(=O)([O-])C(F)(F)F

>  <activity coefficient>
0.759

$$$$

A: C=CCCCCCC [oct-1-ene] + CCCC[n+]1cccc(C)c1.O=S(=O)([O-])C(F)(F)F
B: c1ccsc1 [thiophene] + CCCC[n+]1cccc(C)c1.O=S(=O)([O-])C(F)(F)F
Given the listed items, does A or B have the lesser reported activity coefficient? # reply format: chosen label
B
(B: 0.972, A: 20)

P: CCCO [propan-1-ol] + CCCC[n+]1cccc(C)c1.O=S(=O)([O-])C(F)(F)F
Q: C=CCCC [1-pentene] + CCCC[n+]1cccc(C)c1.O=S(=O)([O-])C(F)(F)F
R: CCCCCCCCCC [decane] + CCCC[n+]1cccc(C)c1.O=S(=O)([O-])C(F)(F)F
S: CCCCCCC [heptane] + CCCC[n+]1cccc(C)c1.O=S(=O)([O-])C(F)(F)F
Arrange the 4 compounds by rising activity coefficient, starting with the smallest. Put the labels in the requested order and list them out.
P, Q, S, R

A: C1CCCCC1 [cyclohexane] + CCCC[n+]1cccc(C)c1.O=S(=O)([O-])C(F)(F)F
B: C1CCOC1 [tetrahydrofuran] + CCCC[n+]1cccc(C)c1.O=S(=O)([O-])C(F)(F)F
When the recorded activity coefficient values are compared, which is smaller: that of A or that of B ? Answer by stating the label of the chosen item.
B
(B: 1.25, A: 10.1)

From: the NIST ThermoML archive (doi:10.1021/je1000582)
